testTarget: Rap guanine nucleotide exchange factor 3 (Homo sapiens)
assayName: Counterscreen qHTS for antagonist of cAMP-regulated guanine nucleotide exchange factor 3 (EPAC1) (AID 1645888);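 also: fluorescence loss as bound BODIPY-GDP is released from Rap1B; % of control where 0% means no effect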
conditionSummary: Rap1B-BODIPY-GDP nucleotide exchange, fluorescence; series mostly up to 154 µM
Records with an inconclusive call do not appear. Calls of active or inactive are those of the source. Calls follow the shape of the dose curve; as a rule, active = well fitted inhibition curve with a large enough effect; inconclusive = small, poorly fitted or top-dose-only effect; inactive = no such curve, though single readings can be large or run the other way.
property: activity change, negative = inhibition

Illustrative cases are given below, each with its answer.
compound | activity change, negative = inhibition
Fc1ccc(-c2noc3ncnc(N4CCN(c5ccccc5)CC4)c23)cc1 | inactive
CCc1ccc(-c2nc(CS(=O)CC(=O)NCc3cccnc3)c(C)o2)cc1 (stereo not given) | inactive
CC1Cc2cc(C(=O)O)ccc2O1 (stereo not given) | inactive
Cc1[nH]n(-c2ccccc2)c(=O)c1C(c1cccc([N+](=O)[O-])c1O)c1c(C)[nH]n(-c2ccccc2)c1=O | 23.8% [at 30.8 µM] (inactive)
COc1ccccc1/C=C1\SC(=S)N(NS(=O)(=O)c2ccc(C)cc2)C1=O | 2.6% [at 30.8 µM] (inactive)
CCOC(=O)c1ccccc1-c1csc(NS(=O)(=O)c2ccc(Cl)cc2)n1 | -28.7% [at 30.8 µM] (inactive)
CCc1ccc(/C=C2/SC(=S)N(CCCC(=O)Nc3ccccc3C(=O)O)C2=O)cc1 | inactive
CCCOC(=O)c1c(-c2ccccc2)c(-c2ccccc2)nn(C)c1=O | inactive
O=CN(CCN(C=O)CN1CCCCC1)CN1CCCCC1 | inactive

Now consider the entry below.
Query block: Any idea what activity change, negative = inhibition was measured for COc1ccc2c(c1)C1=NN(/C(C)=C/C(C)=O)C(c3cccc(F)c3)C1CC2 (stereo not given) ?
Result block: -17.2% [at 30.8 µM] (inactive)

* * *

For each record, write down the corresponding activity change, negative = inhibition.
assayName: qHTS Assay for Lipid Storage Modulators (AID 1519); also: % is scaled to controls: 0 for no effect and ±100 for the full control effect
conditionSummary: Drosophila S3 cells, BODIPY lipid droplet/cell ratio, laser cytometry; at 57.5 µM (top of the series); cells loaded with oleic acid
Records with an inconclusive call do not appear.
Numbers only, in %.

Use the examples below as a reference point.
molecule | activity change, negative = inhibition [%]
O=c1oc2ccccc2cc1O | 6.16
O=C(O)CCCCC1SCC2NC(=O)NC21 (stereo unspecified) | 0.834
CC(CCC(=O)O)C1CCC2C3CC[C@@H]4CCCC[C@@]4(C)C3CC[C@@]12C (stereo partly specified) | 2.19
NC1(C(=O)O)CCCC1 | -0.822

Your task in this section: give activity change, negative = inhibition for each listed record.
1. CC(CCC(=O)O)C1CCC2C3CC[C@H]4CC(O)CC[C@@]4(C)C3C=C[C@]12C (stereo partly specified)
2. O=c1[nH]c(=O)n(C2CC(O)C(CO)O2)cc1C(F)(F)F (stereo unspecified)
3. C[C@@]12CCC3c4ccc(OS(=O)(=O)O)cc4CCC3C1CCC2O (stereo partly specified)
4. COC(=O)CC1C(C)(C)C(OC(C)=O)C2CC3C4CC(=O)OC(c5ccoc5)[C@]4(C)CCC3[C@@]1(C)C2=O (stereo partly specified)
5. CC1(C)OC2CC3C4CC(F)C5=CC(=O)C=C[C@@]5(C)[C@@]4(F)C(O)C[C@@]3(C)[C@]2(C(=O)CO)O1 (stereo partly specified)
6. COC(=O)CC1C(C)(C)C(O)C2CC3=C4CC(O)OC(c5ccoc5)[C@]4(C)CCC3[C@@]1(C)C2=O (stereo partly specified)
7. COc1ccc2c(c1)O[C@@H]1c3ccc(OC)cc3OCC21 (stereo partly specified)

Result block:
5.52
3.87
4.64
-20.8
3.9
-6.39
3.42

Dear colleague, could you please provide activity change, negative = inhibition for the molecules listed below?
1. COC1[C@H](OC(N)=O)C(O)[C@H](Oc2ccc3c(O)c(NC(=O)c4ccc(O)c(CC=C(C)C)c4)c(=O)oc3c2C)OC1(C)C (stereo partly specified)
2. COc1ccc2c(c1)OCC(Cc1ccc(O)c(OC)c1)C2=O (stereo unspecified)
3. CC(C)=CCC[C@](C)(O)C1CC=C(C)CC1 (stereo partly specified)

Result block:
1: 8.38; 2: 13.3; 3: 6.04

Go through the list and state activity change, negative = inhibition for each entry.
1. C#CCCCCCCCCCCCC(=O)CC(O)COC(C)=O (stereo unspecified)
2. C[C@@H]1OC(OC2CC[C@@]3(C)C(CC[C@@]4(C)C3CC=C3C5CC(C)(C)CC[C@]5(C(=O)OC5OCC(O)[C@@H](O)[C@@H]5OC5O[C@@H](C)[C@H](O[C@H]6OC(CO)C(O)C(O)C6O)C(O)C5O)C(O)C[C@@]34C)C2(C)C)C(O)C(O)[C@H]1OC1OCC(O)C(O)[C@H]1O (stereo partly specified)
3. CC(=O)OC1C[C@]2(C)[C@@H](CC(O)C3[C@]4(C)CCC(O)C(C)[C@@H]4CC[C@]32C)/C1=C(/CCC=C(C)C)C(=O)O (stereo partly specified)
4. CC(=O)/C(=C\c1ccccc1)CC(=O)O
5. CC[C@@H]1OC(=O)[C@@H](C)[C@H](O[C@H]2C[C@@](C)(OC)[C@@H](O)[C@H](C)O2)C(C)[C@H](O[C@H]2O[C@@H](C)C[C@@H](N(C)C)[C@@H]2O)[C@@](C)(O)C[C@H](C)C(=O)[C@@H](C)[C@H](O)[C@@]1(C)O (stereo partly specified)
6. CCC(C)C(=O)OC1CCC=C2C=CC(C)C(CCC3CC(O)CC(=O)O3)[C@@H]21 (stereo partly specified)

Result block:
[3.5, 1.15, 5.26, 9.42, 6.26, 0.311]

Parameters: items (list). Returns: activity change, negative = inhibition for each item.
1. CC(C)CCCC(C)C1CCC2C3=CC[C@@H]4CC(O)CC[C@@]4(C)C3CC[C@]21C (stereo partly specified)
2. Oc1ccc(C2Oc3cc(O)cc(O)c3CC2O)cc1 (stereo unspecified)
3. CC(CCC(=O)O)C1CCC2C3CC(O)[C@@H]4CC(O)CC[C@]4(C)C3CC[C@@]12C (stereo partly specified)
4. COc1c(OC)c2occc2c2oc(=O)ccc12

Result block:
1. -3.72
2. 14.6
3. 6.93
4. 12.4

// input: 4 molecules below; output: activity change, negative = inhibition for each
1. Nc1ncnc2c1nc(Br)n2C1CC(O)C(CO)O1 (stereo unspecified)
2. CC1(C)C(=O)CC[C@@]2(C)C1CC(O)[C@@]1(C)C3=CC(=O)OC(c4ccoc4)[C@]3(C)CCC21 (stereo partly specified)
3. COc1ccc2c(c1)OC1(O)COc3cc(OC)c(OC)cc3C1=C2 (stereo unspecified)
4. O=C(/C=C(\O)c1ccccc1)c1ccccc1O

Result block:
1: 2.34; 2: 11; 3: 0.865; 4: -15.7

For every listed record, write down its activity change, negative = inhibition.
1. CC1CC[C@]2(CO)CC[C@]3(C)C(=CCC4[C@@]5(C)CCC(O)C(C)(C)C5CC[C@@]43C)C2C1C (stereo partly specified)
2. C[N+]1(C)CC(O)[C@H](C(=O)[O-])C1 (stereo partly specified)

Result block:
[6.23, 1.35]

Take each entry in turn and give its activity change, negative = inhibition.
1. COc1ccccc1/C=C\C(=O)O
2. Nc1ncnc2nc(Cl)[nH]c12
3. NCCCCC(NC(CCc1ccccc1)C(=O)O)C(=O)N1CCCC1C(=O)O (stereo unspecified)

Result block:
1: -2.1; 2: 2.56; 3: 8.08

The following molecules each have a reported value; give each one's activity change, negative = inhibition.
1. CC12CCC3c4ccc(OCc5ccccc5)cc4CCC3C1CC(O)C2O (stereo unspecified)
2. CCOc1ccc(C(=O)c2ccc(OC)c(O)c2O)cc1
3. C=C1CC/C=C(\C)CC[C@@H]2[C@@H]1CC2(C)C
4. Cn1c(=O)[nH]c2nc[nH]c2c1=O
5. COc1cc(O)c(C(C)=O)c(OC)c1

Result block:
1. 3.93
2. 7.45
3. -10.6
4. 5.61
5. 4.43

* * *

testTarget: Rap guanine nucleotide exchange factor 3 (Homo sapiens) (UniProt O95398)
Sequence (O95398 whole entry, looked up): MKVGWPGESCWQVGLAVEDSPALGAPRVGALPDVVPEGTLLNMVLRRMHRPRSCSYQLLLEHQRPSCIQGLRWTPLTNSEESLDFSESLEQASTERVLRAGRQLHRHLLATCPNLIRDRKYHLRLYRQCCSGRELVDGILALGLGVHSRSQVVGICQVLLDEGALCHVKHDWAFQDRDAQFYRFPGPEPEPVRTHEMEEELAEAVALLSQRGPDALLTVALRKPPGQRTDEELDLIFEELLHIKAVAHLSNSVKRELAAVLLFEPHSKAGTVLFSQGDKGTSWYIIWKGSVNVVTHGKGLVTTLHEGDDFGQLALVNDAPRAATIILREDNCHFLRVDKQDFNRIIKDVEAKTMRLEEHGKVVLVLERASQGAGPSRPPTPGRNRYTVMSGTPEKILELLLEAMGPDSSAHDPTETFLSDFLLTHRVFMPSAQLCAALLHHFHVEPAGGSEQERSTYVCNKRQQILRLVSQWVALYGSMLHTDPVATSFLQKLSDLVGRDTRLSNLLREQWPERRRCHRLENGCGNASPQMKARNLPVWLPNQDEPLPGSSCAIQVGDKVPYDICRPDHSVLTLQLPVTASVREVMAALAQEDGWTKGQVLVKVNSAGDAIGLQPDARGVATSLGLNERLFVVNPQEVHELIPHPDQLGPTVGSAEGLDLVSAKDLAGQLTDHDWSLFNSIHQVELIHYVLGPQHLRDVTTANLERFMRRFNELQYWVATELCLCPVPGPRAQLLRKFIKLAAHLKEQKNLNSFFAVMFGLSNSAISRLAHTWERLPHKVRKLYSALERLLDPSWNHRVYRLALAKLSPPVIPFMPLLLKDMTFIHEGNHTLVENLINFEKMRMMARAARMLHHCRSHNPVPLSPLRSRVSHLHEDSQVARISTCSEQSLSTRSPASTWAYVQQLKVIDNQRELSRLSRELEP
assayName: Counterscreen qHTS for agonist of cAMP-regulated guanine nucleotide exchange factor 3 (EPAC1) (AID 1645889); also: % of control where 0% means no effect; nearly all actives have a fitted effect of over 40% in size
conditionSummary: EPAC1 Rap1B-BODIPY-GDP exchange, fluorescence; series mostly up to 154 µM
Results filed as inconclusive are left out. The source made the active and inactive calls. Calls follow the shape of the dose curve; as a rule, active = well fitted activation curve with a large enough effect; inconclusive = small, poorly fitted or top-dose-only effect, or another doubt; inactive = no such curve, though single readings can be large or run the other way.
property: activation

molecule | activation
CCOC(=O)C1=C(C)N=C2SC=C(C)N2C1c1ccc(OC)cc1 (centres undefined) | inactive
Cn1cc(C(C[N+](=O)[O-])c2ccccc2)c2ccccc21 (centres undefined) | 13.8% [at 30.8 µM] (inactive)
Cc1nc(N)sc1C(=O)N1N=N1 | inactive
CCCC(=O)N1c2nc(C(C)C)nn2C2(CCCCC2)[C@@H]2CCCC[C@@H]21 | inactive
CN(Cc1ccc(F)cc1)C(=O)c1cccc(OCc2ccccc2)c1 | -0.388% [at 30.8 µM] (inactive)
Cn1c(=O)c2nc3ccc(NC(=O)C(F)(F)F)cc3nc2n(C)c1=O | inactive

State recorded activation for all listed molecules.
1. Cc1nc(SC(C)C(=O)NCC2CCCO2)c2cc(-c3ccccc3)sc2n1 (centres undefined)
2. COc1ccccc1NC(=O)CSc1nc(-c2ccc(C(C)(C)C)cc2)c(C#N)c(=O)[nH]1
3. COC(=O)C1(Cc2ccccc2)NC(c2ccc(F)cc2)C2C(=O)N(C)C(=O)C21 (centres undefined)
4. CCc1cccc(C)c1NC(=O)c1cc2ccccc2o1
5. Cc1c(CCC(=O)O)c(=O)oc2cc(OCc3ccc(Br)cc3)ccc12
6. CCCCC(=O)N(c1ccc(C(=O)O)cc1)c1nc(-c2ccc(Cl)cc2)c(CC)s1
7. CC(=O)Nc1ccc(CNc2nc3cc(-c4ccsc4)sc3c(=O)n2C)cc1

Result block:
["inactive", "inactive", "3.32% [at 30.8 µM] (inactive)", "inactive", "inactive", "19.6% [at 30.8 µM] (inactive)", "36.9% [at 30.8 µM] (inactive)"]

// each molecule listed below needs its activation
1. CC1=NN(c2nc(-c3ccc(Cl)cc3)cs2)C(=O)C1
2. CCn1c2ccccc2c2nnc(SCC(=O)N(C)C3CCS(=O)(=O)C3)nc21 (centres undefined)
3. Cc1ccccc1OCc1nc2ccccc2n1Cc1ccccc1Cl
4. O=C(COC(=O)c1cccc(-n2cnnn2)c1)c1ccc(F)cc1
5. COC(=O)c1sccc1NS(=O)(=O)c1ccccc1[N+](=O)[O-]

Result block:
1: 11% [at 30.8 µM] (inactive); 2: 4.22% [at 30.8 µM] (inactive); 3: inactive; 4: 4.41% [at 30.8 µM] (inactive); 5: 33.8% [at 30.8 µM] (inactive)

# batch size: 6; output activation per entry
1. Cc1cccc(NC(=S)NC(=O)c2oc3ccccc3c2C)n1
2. O=C(O)c1ccc(N/N=C/c2c(F)cccc2Cl)cc1
3. O=C(N/N=C/C=C\c1ccco1)c1ccccn1
4. Cc1cc(C)n2[nH]c(=O)c(N=Nc3ccc(S(N)(=O)=O)cc3)c2n1
5. COc1cc(C2c3c(oc4ccccc4c3=O)C(=O)N2c2nc(C)c(C)s2)ccc1O (centres undefined)
6. Cc1nn(CC(=O)N(C)C2CCS(=O)(=O)C2)c(C)c1[N+](=O)[O-] (centres undefined)

Result block:
["inactive", "3.47% [at 30.8 µM] (inactive)", "inactive", "inactive", "inactive", "30.9% [at 30.8 µM] (inactive)"]

For each of the molecules below, note its activation.
1. C=CCc1ccccc1Oc1cc(OC)nc(N)n1
2. COc1cccc(/C=C2\SC(=S)N(C(Cc3ccccc3)C(=O)O)C2=O)c1 (centres undefined)
3. O=C(Nc1ccc(F)cc1F)C1CCN(c2ncccn2)CC1
4. COc1ccc(CC(=O)Nc2nc(-c3cccnc3)cs2)cc1

Result block:
-1.76% [at 30.8 µM] (inactive)
inactive
inactive
-9.76% [at 30.8 µM] (inactive)

# return activation for each item in the list
1. Cc1ccc(OCCC(=O)OCC(=O)NNC(=O)c2ccccc2)cc1
2. COc1ccccc1C(=O)NC(CCSC)C(=O)NCc1ccccn1 (centres undefined)
3. CC1CCCCC1NC(=O)COC(=O)c1c2c(nc3ccccc13)/C(=C/c1ccco1)CC2 (centres undefined)

Result block:
["0.419% [at 30.8 µM] (inactive)", "-9.2% [at 30.8 µM] (inactive)", "inactive"]

Quick batch: activation for everything below.
1. Cc1ccc(S(=O)(=O)N2CCCCC2)cc1C(=O)NCCC1=CCCCC1
2. CC(OC(=O)CNC(=O)COc1ccccc1)C(=O)N(C)Cc1ccccc1 (centres undefined)
3. CCN(CC)c1nc(C#N)cc(-c2ccc(OC)cc2)n1

Result block:
1: inactive; 2: -1.24% [at 30.8 µM] (inactive); 3: inactive

All figures here come from PubChem BioAssay (NCATS).
